Kindly supply the reported IC50 values for the records listed here.
- Test system: PKC mediated IL-2 production in human primary T cells
- Experiment Summary: IL-2 ELISA, human primary T cell, anti CD3+CD28+ (whole cell functional assay for PKC mediated IL-2 production)
- Type: cell-based
- Protocol Conditions: human primary T cells stimulated with anti-CD3 + anti-CD28, 24 h, IL-2 by ELISA, 8 pt, read-out: IL2 ELISA, Human primary T cell, anti-CD3 + CD28, 8 pt (IC50)
Numbers only, in µM.

Below is a list of molecules. For each, state its recorded IC50.
1. Cc1ccc(Nc2ncc(C(F)(F)F)c(NC[C@@H]3CCCN4CCCC[C@H]34)n2)cc1-n1cnnn1
2. COCCOc1cc(F)c(Nc2ncc(C#N)c(NC[C@@H]3CCCN4CCCC[C@H]34)n2)cc1-n1nnn(C)c1=O
3. COc1cc(Nc2ncc(C#N)c(NC[C@@H]3CCCN4CCCC[C@H]34)n2)cc(OC)c1
4. Cc1nnnn1-c1ccc(F)c(Nc2nccc(NC[C@@H]3CCCN4CCCC[C@H]34)n2)c1
5. Cc1nnnn1-c1ccc(F)c(Nc2ncc(C(F)(F)F)c(NC[C@@H]3CCCN4CCCC[C@H]34)n2)c1
6. COc1cc(Nc2nccc(NC[C@@H]3CCCN4CCCC[C@H]34)n2)cc(OC)c1
7. CN(C)c1cnc(Nc2cc(-n3cnnn3)c(C3CC3)cc2F)nc1NC[C@@H]1CCCN2CCCC[C@H]12

Reply text:
1. 10.7
2. 1.34
3. 0.141
4. 2
5. 26.8
6. 3.59
7. 3.31

---

Hi there, I'd appreciate the recorded IC50 for every entry that follows.
- Tested on: PKC mediated IL-2 production in human primary T cells
- Experiment Summary: IL-2 ELISA, human primary T cell, anti CD3+CD28+ (whole cell functional assay for PKC mediated IL-2 production)
- Type: cell-based
- Protocol Conditions: human primary T cells stimulated with anti-CD3 + anti-CD28, 24 h, IL-2 by ELISA, 8 pt, read-out: IL2 ELISA, Human primary T cell, anti-CD3 + CD28, 8 pt (IC50)
Give bare numbers, in nM.

Compound: Cc1ccc(Nc2ncc(Cl)c(NC[C@@H]3CCCN4CCCC[C@H]34)n2)cc1-n1cnnn1 [Compound 33]
Readout Units: nM
IC50: 117

Compound: COc1cnc(Nc2cc(C#N)c(C3CC3)cc2F)nc1NC[C@@H]1CCCN2CCCC[C@H]12 [Compound 82]
Readout Units: nM
IC50: 1310

Compound: N#Cc1cc(Nc2ncc(Cl)c(NC[C@@H]3CCCN4CCCC[C@H]34)n2)ccc1C1CC1 [Compound 41]
Readout Units: nM
IC50: 72.3

Compound: CCN1C(=O)C(F)(F)Oc2cc(Nc3ncc(F)c(NC[C@@H]4CCCN5CCCC[C@H]45)n3)cnc21 [Compound 27]
Readout Units: nM
IC50: 652

Compound: Cc1nnnn1-c1cc(Nc2ncc(N(C)C)c(NC[C@@H]3CCCN4CCCC[C@H]34)n2)ccc1F [Compound 88]
Readout Units: nM
IC50: 12700

Quick batch: IC50 for everything below.
1. O=S1(=O)CCCN1c1cc(Nc2ncc(F)c(NC[C@@H]3CCCN4CCCC[C@H]34)n2)ccc1F [Compound 24]
2. N#Cc1cnc(Nc2ccc(Cl)c(-n3nnnc3C3CC3)c2)nc1NC[C@@H]1CCCN2CCCC[C@H]12 [Compound 124]
3. CN(C)c1cnc(Nc2ccc(C3CC3)c(C#N)c2)nc1NC[C@@H]1CCCN2CCCC[C@H]12 [Compound 94]

Reply text:
1. 3450
2. 3.1
3. 2570

---

- Test system: PKC mediated IL-2 production in human primary T cells
- Experiment Summary: IL-2 ELISA, human primary T cell, anti CD3+CD28+ (whole cell functional assay for PKC mediated IL-2 production)
- Format: cell-based
- Protocol Conditions: human primary T cells stimulated with anti-CD3 + anti-CD28, 24 h, IL-2 by ELISA, 8 pt, read-out: IL2 ELISA, Human primary T cell, anti-CD3 + CD28, 8 pt (IC50)
Quantity Measured: pIC50
One number for each entry, as −log10 of the molar value.

Molecule: Cn1nnn(-c2cc(Nc3ncc(Cl)c(NC[C@@H]4CCCN5CCCC[C@H]45)n3)c(F)cc2OCC(C)(C)O)c1=O [Compound 155]
pIC50: 6.87

Molecule: O=c1[nH]c2cc(Nc3nccc(NC[C@@H]4CCCN5CCCC[C@H]45)n3)ccc2o1 [Compound 58]
pIC50: 4.73

Molecule: COc1cc(Nc2ncc(OC)c(NC[C@@H]3CCCN4CCCC[C@H]34)n2)cc(-n2nnnc2C)c1 [Compound 78]
pIC50: 5.65

Molecule: N#Cc1cc(Nc2nccc(NC[C@@H]3CCCN4CCCC[C@H]34)n2)ccc1C1CC1 [Compound 55]
pIC50: 6.22

Molecule: N#Cc1cccc(Nc2ncc(F)c(NC[C@@H]3CCCN4CCCC[C@H]34)n2)c1 [Compound 10]
pIC50: 6.23

# map each molecule to its pIC50
1. COc1cc(Nc2ncc(C)c(NC[C@@H]3CCCN4CCCC[C@H]34)n2)cc(-n2nnnc2C)c1 [Compound 65]
2. Fc1ccc(S(F)(F)(F)(F)F)cc1Nc1ncc(F)c(NC[C@@H]2CCCN3CCCC[C@H]23)n1 [Compound 29]

Reply text:
7.14
5.74

---

- Tested on: PKC mediated IL-2 production in human primary T cells
- Experiment Summary: IL-2 ELISA, human primary T cell, anti CD3+CD28+ (whole cell functional assay for PKC mediated IL-2 production)
- Assay type: cell-based
- Protocol Conditions: human primary T cells stimulated with anti-CD3 + anti-CD28, 24 h, IL-2 by ELISA, 8 pt, read-out: IL2 ELISA, Human primary T cell, anti-CD3 + CD28, 8 pt (IC50)
Quantity Measured: IC50
Param answer (str): number followed by unit.

As a guide, the following entries are already answered.
Structure As Smiles: N#Cc1cccc(Nc2ncc(C(F)(F)F)c(NC[C@@H]3CCCN4CCCC[C@H]34)n2)c1
Meas Value: 17100 nM
//
Structure As Smiles: Cc1ccc(Nc2ncc(C#N)c(NC[C@@H]3CCCN4CCCC[C@H]34)n2)cc1C#N
Meas Value: 35.7 nM
//
Structure As Smiles: COc1ccc(Nc2ncc(C#N)c(NC[C@@H]3CCCN4CCCC[C@H]34)n2)cc1-n1nnnc1C
Meas Value: 18 nM

Next up:
Inquiry: If you can, please state the reported IC50 value of Fc1cc(C2CC2)c(-n2cnnn2)cc1Nc1ncc(F)c(NC[C@@H]2CCCN3CCCC[C@H]23)n1 .
Reply text: 372 nM

---

- Test system: PKC mediated IL-2 production in human primary T cells
- Experiment Summary: IL-2 ELISA, human primary T cell, anti CD3+CD28+ (whole cell functional assay for PKC mediated IL-2 production)
- Assay type: cell-based
- Protocol Conditions: human primary T cells stimulated with anti-CD3 + anti-CD28, 24 h, IL-2 by ELISA, 8 pt, read-out: IL2 ELISA, Human primary T cell, anti-CD3 + CD28, 8 pt (IC50)
Could you mark each record Criterion met if its IC50 falls strictly under 1000 nM, and Criterion not met if it equals or exceeds it?

Structure As Smiles: Cc1ccc(Nc2nccc(NC[C@@H]3CCCN4CCCC[C@H]34)n2)cc1C#N
Group Label: Criterion not met
--
Structure As Smiles: Cn1nnn(-c2cc(Nc3ncc(Cl)c(NC[C@@H]4CCCN5CCCC[C@H]45)n3)c(F)cc2OC(C)(C)CO)c1=O
Group Label: Criterion met
--
Structure As Smiles: Cn1nnn(-c2cc(Nc3ncc(F)c(NC[C@@H]4CCCN5CCCC[C@H]45)n3)c(F)cc2O)c1=O
Group Label: Criterion not met
--
Structure As Smiles: COc1cc(Nc2ncc(C(F)(F)F)c(NC[C@@H]3CCCN4CCCC[C@H]34)n2)cc(OC)c1
Group Label: Criterion not met

Inquiry: Report whether reported IC50 is lower than 1000 nM (strictly) for COc1cnc(Nc2cc(-n3cnnn3)c(C3CC3)cc2F)nc1NC[C@@H]1CCCN2CCCC[C@H]12
Reply text: Criterion not met

Inquiry: IC50 under 1000 nM? Item: Cc1nnnn1-c1cc(Nc2ncc(C#N)c(NC[C@@H]3CCCN4CCCC[C@H]34)n2)ccc1F
Reply text: Criterion met

Inquiry: Check if IC50 falls below 1000 nM for Cn1nnn(-c2cc(Nc3ncc(C#N)c(NC[C@@H]4CCCN5CCCC[C@H]45)n3)c(F)cc2OCC(C)(C)O)c1=O .
Reply text: Criterion met

---

- Test system: PKC mediated IL-2 production in human primary T cells
- Experiment Summary: IL-2 ELISA, human primary T cell, anti CD3+CD28+ (whole cell functional assay for PKC mediated IL-2 production)
- Assay type: cell-based
- Protocol Conditions: human primary T cells stimulated with anti-CD3 + anti-CD28, 24 h, IL-2 by ELISA, 8 pt, read-out: IL2 ELISA, Human primary T cell, anti-CD3 + CD28, 8 pt (IC50)
pIC50: −log10 of the molar value.
Decision: pIC50 compared against 6; not below it gives fulfilled, below it gives not fulfilled.

Look over these answered cases.
Compound: Cc1ccc(Nc2nccc(NC[C@@H]3CCCN4CCCC[C@H]34)n2)cc1-n1cnnn1 [Compound 47]
System Tested: PKC mediated IL-2 production in human primary T cells
Group Label: fulfilled

Compound: Cc1cc(C2CC2)c(-n2nnn(C)c2=O)cc1Nc1ncc(F)c(NC[C@@H]2CCCN3CCCC[C@H]23)n1 [Compound 15]
System Tested: PKC mediated IL-2 production in human primary T cells
Group Label: not fulfilled

Compound: C[C@H](O)COc1cc(F)c(Nc2ncc(F)c(NC[C@@H]3CCCN4CCCC[C@H]34)n2)cc1-n1nnn(C)c1=O [Compound 149]
System Tested: PKC mediated IL-2 production in human primary T cells
Group Label: fulfilled

Compound: COc1cc(Nc2ncc(C#N)c(NC[C@@H]3CCCN4CCCC[C@H]34)n2)cc(-n2nnnc2C)c1 [Compound 115]
System Tested: PKC mediated IL-2 production in human primary T cells
Group Label: fulfilled

Here's the next entry for you.
Inquiry: I'd appreciate it if you could say whether Cc1nnnn1-c1cc(Nc2ncc(C(F)(F)F)c(NC[C@@H]3CCCN4CCCC[C@H]34)n2)ccc1F [Compound 103] has pIC50 at least equal to 6.
Reply text: not fulfilled

From: patent US9913843B2
